Molecular target: Coagulation factor X (Homo sapiens)
Sequence (P00742 41-179 limits assumed): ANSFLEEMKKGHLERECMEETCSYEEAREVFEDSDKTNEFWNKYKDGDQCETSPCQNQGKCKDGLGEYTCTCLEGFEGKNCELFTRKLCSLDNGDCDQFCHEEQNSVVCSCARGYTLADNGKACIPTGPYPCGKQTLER
Sequence (P00742 235-488 limits assumed): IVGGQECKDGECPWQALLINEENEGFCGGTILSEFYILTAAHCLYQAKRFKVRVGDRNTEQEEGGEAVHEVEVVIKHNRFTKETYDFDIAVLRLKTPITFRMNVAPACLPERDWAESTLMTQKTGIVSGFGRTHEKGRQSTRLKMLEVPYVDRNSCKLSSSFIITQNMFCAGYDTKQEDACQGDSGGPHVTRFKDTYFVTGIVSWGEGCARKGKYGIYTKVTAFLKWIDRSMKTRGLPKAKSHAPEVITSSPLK
Property measured: IC50 (nM)

Below, each entry is followed by its recorded IC50 result.
In [3]: df
Out[3]:
                         chemical_structure  unit  number
0  Cc1cc(C(=O)Nc2ccc(N3CCOCC3=O)cc2)n(-c2ccc3cc(Cl)ccc3c2)n1    nM       1
1  Cc1cc(C(=O)Nc2ccc(C(=O)N3CCCC3)cc2)n(-c2ccc3cc(Cl)ccc3c2)n1    nM       6
2  Cc1cc(C(=O)Nc2ccc(-c3ccccc3CN(C)C)cc2F)n(-c2ccc3cc(Cl)ccc3c2)n1    nM       2
3  Cc1cc(C(=O)Nc2ccc(-c3ccccc3S(N)(=O)=O)cc2F)n(-c2cc3ccccc3cc2S(C)(=O)=O)n1    nM       5
4  Cc1cc(C(=O)Nc2ccc(N3CCOCC3=O)cc2F)n(-c2cc3ccccc3cc2S(C)(=O)=O)n1    nM       2
5  Cc1cc(C(=O)Nc2ccc(-n3cccn3)cc2)n(-c2ccc3cc(Cl)ccc3c2)n1    nM     215
6  Cc1cc(C(=O)Nc2ccc(-c3ccccc3C(=N)N(C)C)cc2)n(-c2ccc3cc(Cl)ccc3c2)n1    nM      26
7  Cc1cc(C(=O)Nc2ccc(C(=O)N(C)C)cc2)n(-c2ccc3cc(Cl)ccc3c2)n1    nM      13
8  Cc1cc(C(=O)Nc2ccc(-c3ccccc3S(C)(=O)=O)cc2F)n(-c2cc3ccccc3cc2S(C)(=O)=O)n1    nM       9
9  Cc1cc(C(=O)Nc2ccc(-c3ccccc3S(C)(=O)=O)cc2F)n(-c2cc3ccccc3cc2F)n1    nM      14

I. Cc1cc(C(=O)Nc2ccc(-n3ccnc3CN(C)C)cc2F)n(-c2cc3ccccc3cc2S(C)(=O)=O)n1
II. Cc1cc(C(=O)Nc2ccc(-n3ccnn3)cc2)n(-c2ccc3cc(Cl)ccc3c2)n1
III. Cc1cc(C(=O)Nc2ccc(-c3cccc(C(=N)N(C)C)c3)cc2)n(-c2ccc3cc(Cl)ccc3c2)n1
IV. Cc1cc(C(=O)Nc2ccc(N3CCOCC3=O)cc2F)n(-c2ccc3cc(Cl)ccc3c2)n1
# rank_down: sort by IC50, max first Give the labels in the order requested.
III, II, I, IV
(III: 380 nM, II: 112 nM, I: 8 nM, IV: 1 nM)
